- Condition Set: human;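 further: human cytolytic liver injury, shown by histopathology or by a ratio above 5 of peak ALT or AST elevation to alkaline phosphatase elevation, value counts indexed references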

Compound: CCC(C)(C)NCC(O)COc1ccccc1C(=O)CCc1ccccc1 (centres undefined)
Hepatotoxicity (cytolytic): 0

Compound: CN(C)[C@@H]1C(O)=C(C(=O)NCN2CCCC2)C(=O)[C@@]2(O)C(O)=C3C(=O)c4c(O)cccc4[C@@](C)(O)[C@H]3C[C@@H]12
Hepatotoxicity (cytolytic): 1

Compound: O=C(NO)c1ccc(O)c(O)c1
Hepatotoxicity (cytolytic): 0

Compound: N[C@H](Cc1cc(I)c(Oc2cc(I)c(O)c(I)c2)c(I)c1)C(=O)O
Hepatotoxicity (cytolytic): 0

Compound: CC/C(=C(/CC)c1ccc(O)cc1)c1ccc(O)cc1
Hepatotoxicity (cytolytic): 0

Compound: C[C@]12C=CC(=O)C=C1CC[C@@H]1[C@@H]2CC[C@@]2(C)[C@H]1CC[C@]2(C)O (stereo in doubt; form 1)
Hepatotoxicity (cytolytic): 0

Compound: Nc1nc(F)nc2c1ncn2[C@@H]1O[C@H](CO)[C@@H](O)[C@@H]1O
Hepatotoxicity (cytolytic): 1

Compound: CC(C)NCC(O)COc1ccc(COCCOC(C)C)cc1 (centres undefined)
Hepatotoxicity (cytolytic): 0

Compound: CCc1cc2c(s1)N(C)C(=O)CN=C2c1ccccc1Cl
Hepatotoxicity (cytolytic): 2

Compound: CCN(CC)CCNC(=O)c1cc(Cl)c(N)cc1OC [METOCLOPRAMIDE]
Hepatotoxicity (cytolytic): 1

Compound: CC(=O)O[C@H]1CC[C@H]2[C@@H]3CC[C@H]4CC(=O)C=C(C)[C@]4(C)[C@H]3CC[C@]12C [METHENOLONE ACETATE]
Hepatotoxicity (cytolytic): 0

Compound: O=C1NCCN1c1ncc([N+](=O)[O-])s1
Hepatotoxicity (cytolytic): 0

Compound: CCC(c1ccccc1)c1c(O)c2ccccc2oc1=O (centres undefined)
Hepatotoxicity (cytolytic): 14

Compound: CCCC(C)(COC(N)=O)COC(=O)NC(C)C (centres undefined)
Hepatotoxicity (cytolytic): 1

Compound: CC(C)[N+](C)(CCC(C(N)=O)(c1ccccc1)c1ccccc1)C(C)C [ISOPROPAMIDE]
Hepatotoxicity (cytolytic): 1

Compound: CS(=O)(=O)OCCCCOS(C)(=O)=O
Hepatotoxicity (cytolytic): 3

Compound: O=C1Nc2ccccc2C1(c1ccc(O)cc1)c1ccc(O)cc1
Hepatotoxicity (cytolytic): 1

Compound: CCc1c(C)[nH]c2c1C(=O)C(CN1CCOCC1)CC2 (centres undefined)
Hepatotoxicity (cytolytic): 1

Compound: CCCNC(=O)NS(=O)(=O)c1ccc(Cl)cc1 [CHLORPROPAMIDE]
Hepatotoxicity (cytolytic): 9

Compound: O=c1[nH]c2ccccc2n1CCCN1CCN(C(c2ccccc2)c2ccccc2)CC1 [OXATOMIDE]
Hepatotoxicity (cytolytic): 3

Compound: COCc1c(C(C)C)nc(C(C)C)c(/C=C/[C@@H](O)C[C@@H](O)CC(=O)O)c1-c1ccc(F)cc1
Hepatotoxicity (cytolytic): 1

Compound: C=C[C@H]1C[N@@]2CC[C@H]1C[C@H]2[C@H](O)c1ccnc2ccc(OC)cc12
Hepatotoxicity (cytolytic): 3

Compound: C[C@@](Cc1ccc(O)c(O)c1)(NN)C(=O)O.O
Hepatotoxicity (cytolytic): 0

Compound: Cc1noc(NS(=O)(=O)c2ccc(N)cc2)c1C
Hepatotoxicity (cytolytic): 1

Compound: CN[C@@H]1[C@@H](O)[C@@H](O[C@@H]2[C@@H](O)[C@H](O[C@H]3O[C@H](CN)[C@@H](O)[C@H](O)[C@H]3O)[C@@H](N)C[C@H]2NC(=O)[C@@H](O)CN)OC[C@]1(C)O
Hepatotoxicity (cytolytic): 0

Compound: CCN(CC)C(=O)/C(C#N)=C/c1cc(O)c(O)c([N+](=O)[O-])c1
Hepatotoxicity (cytolytic): 0

Compound: CC(=O)Oc1cccc2c1C(=O)c1c(OC(C)=O)cc(C(=O)O)cc1C2=O
Hepatotoxicity (cytolytic): 1

Compound: COc1cc(C(=O)NS(=O)(=O)c2ccccc2C)ccc1Cc1cn(C)c2ccc(NC(=O)OC3CCCC3)cc12
Hepatotoxicity (cytolytic): 8

Compound: Cc1ncc(-c2csc(N=C(N)N)n2)[nH]1
Hepatotoxicity (cytolytic): 1

Compound: CC(C)N(CCC(C(N)=O)(c1ccccc1)c1ccccn1)C(C)C (centres undefined) [DISOPYRAMIDE]
Hepatotoxicity (cytolytic): 6

Compound: CN[C@@H]1[C@H](O[C@H]2[C@H](O[C@H]3[C@H](O)[C@@H](O)[C@H](NC(=N)N)[C@@H](O)[C@@H]3NC(=N)N)O[C@@H](C)[C@]2(O)CO)O[C@@H](CO)[C@H](O)[C@H]1O [DIHYDROSTREPTOMYCIN]
Hepatotoxicity (cytolytic): 1

Compound: CC(C)=CCC1C(=O)N(c2ccccc2)N(c2ccccc2)C1=O
Hepatotoxicity (cytolytic): 2

Compound: O=C(CCCCC(=O)Nc1c(I)cc(I)c(C(=O)O)c1I)Nc1c(I)cc(I)c(C(=O)O)c1I [IODIPAMIDE]
Hepatotoxicity (cytolytic): 6

Compound: O=P1(NCCCl)OCCCN1CCCl (centres undefined) [IFOSFAMIDE]
Hepatotoxicity (cytolytic): 2
